Target Under Test: recombinant human KLK5 (human) (UniProt Q9Y337)
Sequence (Q9Y337 67-293): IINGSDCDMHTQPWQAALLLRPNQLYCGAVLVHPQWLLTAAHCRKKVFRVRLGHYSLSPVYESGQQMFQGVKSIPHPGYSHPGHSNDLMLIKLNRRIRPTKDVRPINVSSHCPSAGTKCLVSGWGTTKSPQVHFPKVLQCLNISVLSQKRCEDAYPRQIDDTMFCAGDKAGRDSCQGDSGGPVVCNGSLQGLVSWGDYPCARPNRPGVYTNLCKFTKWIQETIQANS
Assay Protocol: pro-KLK7 LC/MS assay, 5 nM KLK5
Quantity: pIC50
Scale: pIC50 equals -log10([C]), with [C] in mol/L.

1) 9H5 (antibody, V domains shown) VH: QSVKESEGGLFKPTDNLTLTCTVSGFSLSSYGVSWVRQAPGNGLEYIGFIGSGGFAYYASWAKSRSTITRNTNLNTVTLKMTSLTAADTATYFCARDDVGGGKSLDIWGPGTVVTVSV VL: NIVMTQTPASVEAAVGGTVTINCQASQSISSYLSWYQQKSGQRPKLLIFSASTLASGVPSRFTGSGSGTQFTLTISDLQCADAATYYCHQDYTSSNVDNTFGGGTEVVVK; 8.77
2) 9H3 (antibody, V domains shown) VH: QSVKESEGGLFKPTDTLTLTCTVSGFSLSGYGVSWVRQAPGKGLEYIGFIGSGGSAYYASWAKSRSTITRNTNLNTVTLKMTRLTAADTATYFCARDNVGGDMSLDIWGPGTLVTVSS VL: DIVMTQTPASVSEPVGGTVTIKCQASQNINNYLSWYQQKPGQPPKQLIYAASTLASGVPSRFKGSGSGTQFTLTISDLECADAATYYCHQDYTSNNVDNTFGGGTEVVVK; 8.98

Now consider a different binder.
Task: Which measured pIC50 value corresponds to 10C5 (antibody, V domains shown) VH: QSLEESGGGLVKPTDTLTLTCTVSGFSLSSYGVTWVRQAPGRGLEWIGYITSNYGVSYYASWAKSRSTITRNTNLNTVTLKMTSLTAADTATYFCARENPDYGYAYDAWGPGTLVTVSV VL: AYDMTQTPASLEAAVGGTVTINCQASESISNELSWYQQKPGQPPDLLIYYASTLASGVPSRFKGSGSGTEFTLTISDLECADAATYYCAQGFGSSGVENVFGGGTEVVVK ?
Result: 9.51
